Every entry's value here was drawn from patent US20220033501A1.

Consider the following binders and their measured OD450 readings.
- TARGET_OR_TEST_SYSTEM: T1, murine TIM-3 extracellular domain protein with hFc tag (mTIM-3-hFc) (mouse, UniProt Q8VIM0 29-191)
- T1 construct: also called mouse TIM-3 extracellular domain protein; not shown: human IgG Fc fragment (hFc) of the pCpC vector
- T1 chain: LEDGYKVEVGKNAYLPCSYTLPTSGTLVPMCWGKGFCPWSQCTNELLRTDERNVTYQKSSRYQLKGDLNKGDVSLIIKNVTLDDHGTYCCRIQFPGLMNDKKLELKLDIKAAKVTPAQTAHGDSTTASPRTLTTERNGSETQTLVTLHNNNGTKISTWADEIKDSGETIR
- METHOD_SUMMARY: ELISA, coated mouse TIM-3 ECD protein, 0.0067 nM antibody

# BINDER, OD450
data = [
    ("34B6D8 fully human TIM-3 antibody (human IgG4, kappa) (antibody, V domains shown) VH: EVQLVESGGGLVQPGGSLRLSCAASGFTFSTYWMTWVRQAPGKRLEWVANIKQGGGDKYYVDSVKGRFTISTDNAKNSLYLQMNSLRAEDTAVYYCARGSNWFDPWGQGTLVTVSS VL: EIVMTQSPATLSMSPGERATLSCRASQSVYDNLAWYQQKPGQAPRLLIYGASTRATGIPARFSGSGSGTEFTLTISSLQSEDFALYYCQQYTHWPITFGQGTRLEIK", 0.24),
    ("134H3G6 fully human TIM-3 antibody (human IgG4, kappa) (antibody, V domains shown) VH: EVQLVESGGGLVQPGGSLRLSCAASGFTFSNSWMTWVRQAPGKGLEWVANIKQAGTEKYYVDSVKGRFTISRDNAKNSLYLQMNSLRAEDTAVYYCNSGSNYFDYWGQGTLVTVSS VL: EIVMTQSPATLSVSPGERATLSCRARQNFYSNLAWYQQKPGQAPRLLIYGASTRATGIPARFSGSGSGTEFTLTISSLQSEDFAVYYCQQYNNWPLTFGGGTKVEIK", 0.22),
]

*Q* State the recorded OD450 for this entry: 57F4E5 fully human TIM-3 antibody (human IgG4, kappa) (antibody, V domains shown) VH: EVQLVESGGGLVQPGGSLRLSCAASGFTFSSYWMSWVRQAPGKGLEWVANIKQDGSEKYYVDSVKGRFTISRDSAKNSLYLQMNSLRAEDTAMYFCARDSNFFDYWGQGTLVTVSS VL: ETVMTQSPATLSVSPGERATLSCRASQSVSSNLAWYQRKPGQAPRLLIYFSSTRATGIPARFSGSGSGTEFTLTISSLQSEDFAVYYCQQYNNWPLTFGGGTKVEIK
*A* 0.23
